Test: Ratio of the concentration of compound leading to a 50% inhibition of the rate of pig brain microtubule disassembly to that of compound 13a was determined
Assay type: functional
property-name: Ratio
Just the number, please.

{"compound": "CC(=O)O[C@@]12CO[C@@H]1C[C@H](O)[C@@]1(C)C(=O)[C@H](O)C3=C(C)[C@@H](OC(=O)C(NC(=O)OC(C)(C)C)C(O)c4ccccc4)C[C@@](O)([C@@H](OC(=O)c4ccccc4)[C@H]21)C3(C)C (some centres undefined)", "Ratio": 20}

// query Ratio value for entry CC(=O)O[C@@]12CO[C@@H]1C[C@H](O)[C@@]1(C)C(=O)[C@H](O)C3=C(C)[C@@H](OC(=O)C(O)C(NC(=O)c4ccc(S(=O)(=O)O)cc4)c4ccccc4)C[C@@](O)([C@@H](OC(=O)c4ccccc4)[C@H]21)C3(C)C (some centres undefined)
11

// query Ratio value for entry `CC(=O)O[C@H]1C(=O)[C@@]2(C)[C@H]([C@H](OC(=O)c3ccccc3)[C@]3(O)C[C@H](OC(=O)[C@H](O)[C@@H](NC(=O)OC(C)(C)C)c4ccccc4)C(C)=C1C3(C)C)[C@]1(OC(C)=O)CO[C@@H]1C[C@@H]2O`
1

// query Ratio value for entry `CC(=O)O[C@@]12CO[C@@H]1C[C@H](O)[C@@]1(C)C(=O)[C@H](O)C3=C(C)[C@@H](OC(=O)[C@@H](O)[C@H](NC(=O)OC(C)(C)C)c4ccccc4)C[C@@](O)([C@@H](OC(=O)c4ccccc4)[C@H]21)C3(C)C`
60
